measure: logP
// response body must contain only the number

Use these answered entries as a reference point.
CC(=O)OCCNc1ccc(-c2ccncc2)c(C)n1: 2.59
CC(=O)OCCNc1ccc(-c2ccncc2)cn1: 2
CCC(=O)OCCCOc1ccc(-c2ccncc2)cn1: 3.07
CC(=O)OCCN(CCOC(C)=O)c1ncc(-c2ccncc2)cc1C#N: 2.44

Field logP (entry CCC(=O)N1CCN(c2ccc(-c3ccncc3)cn2)CC1 ) reads 2.39
